Catalogue of Ratio EC50 values
Species on record: Rattus norvegicus
test_name: Selectivity index, ratio of EC50 for rat brain DOR to EC50 for rat brain MOR by cAMP accumulation assay
Where a SMILES comes first, the peptide text is derived from it. [ ]: non-standard residue; d: D form. Dmt = Cc1cc(O)cc(C)c1C[C@H](N)C(=O)O; dNMeA = CN[C@H](C)C(=O)O; Sar = CNCC(=O)O
readout_name: Ratio EC50

> print(dat)
                                   molecule  result
1  Cc1cc(O)cc(C)c1C[C@H](N)C(=O)N(C)[C@H](C)C(=O)N[C@@H](Cc1ccccc1)C(=O)N(C)CC(N)=O (H-[Dmt][dNMeA]F[Sar]-NH2)   55700
2  C[C@H](C(=O)N[C@@H](Cc1ccccc1)C(=O)N(C)CC(N)=O)N(C)C(=O)[C@@H](N)Cc1ccc(O)cc1 (H-Y[dNMeA]F[Sar]-NH2)     293
3  Cc1cc(O)cc(C)c1C[C@H](N)C(=O)N[C@H](C)C(=O)N[C@H]1Cc2ccccc2CN(CC(N)=O)C1=O    2.04
4  Cc1cc(O)cc(C)c1C[C@H](N)C(=O)N(C)[C@H](C)C(=O)N[C@H]1Cc2ccccc2CN(CC(N)=O)C1=O     9.2
